Assignment: determine reported growth for the given compounds.
- Tested on: NCI-H522 lung
- Assay Info: NCI-60 one-dose screen, 48 h (100 = growth as untreated, 0 = no growth, -100 = all killed)
- Measurement Conditions: 10 µM unless noted
This is part of a sample that, as a whole, favours compounds with a hit. Of some 83,000 tested, about 20% had one in any assay.
Supply the numeric figure in %, leaving out any unit text.

[in] Recorded growth for `C1CCCCNCCC1` , please?
[out] 115

[in] Recorded growth for `NC(=S)NS(=O)(=O)c1ccc(N)cc1` , please?
[out] 102

[in] Recorded growth for O=C1OC(Oc2ccc(Br)cc2)(c2ccccc2)c2ccccc21 (stereo unspecified) , please?
[out] 69

[in] Recorded growth for `Cc1nn(-c2ccc(Cl)cc2)c2ncnc(N/N=C/c3ccccc3O)c12` , please?
[out] 23.3

[in] Recorded growth for CC(/C=N/N1C(=O)c2ccccc2C1=O)c1ccccc1 (stereo unspecified) , please?
[out] 104

[in] Recorded growth for `CC(C)CNC(=O)c1ccccc1C(=O)NC1(C(=O)NCC(C)C)CCCC1` , please?
[out] 95.9

* * *

Assignment: determine reported growth for the given molecules.
- System: NCI-H226 lung
- Assay Info: NCI-60 one-dose screen, 48 h (100 = growth as untreated, 0 = no growth, -100 = all killed)
- Measurement Conditions: 10 µM unless noted
This is part of a sample that, as a whole, favours compounds with a hit. Of some 83,000 tested, about 20% had one in any assay.
Supply the numeric figure in %, leaving out any unit text.

[in] # query: growth | item `CN(Cc1ccccc1)Cc1ccccc1` | system: NCI-H226 lung
[out] 94.1

[in] # query: growth | item `CCOC(=O)C(CNc1ccccc1)C(=O)OCC` | system: NCI-H226 lung
[out] 95.2

[in] # query: growth | item `OCc1ccccn1` | system: NCI-H226 lung
[out] 102

[in] # query: growth | item CCC(=O)C(CC)c1cccc(OC)c1 (centres undefined) | system: NCI-H226 lung
[out] 102

[in] # query: growth | item CC1(c2ccc3ccccc3c2)CCC(=O)O1 (centres undefined) | system: NCI-H226 lung
[out] 110

[in] # query: growth | item `Fc1ccccc1Nc1n[nH]c(=S)s1` | system: NCI-H226 lung
[out] 107

[in] # query: growth | item `CCCCCCCCCCCCCCCCOc1ccc(C)cc1` | system: NCI-H226 lung
[out] 107

[in] # query: growth | item `O=[N+]([O-])c1ccc(-n2[nH]nnc2=S)cc1` | system: NCI-H226 lung
[out] 107

[in] # query: growth | item `CCN(CC)C(=O)c1cccnc1` | system: NCI-H226 lung
[out] 110

[in] # query: growth | item `c1ccc(N(c2ccccc2)c2ccccc2)cc1` | system: NCI-H226 lung
[out] 104

[in] # query: growth | item `N#CCCOc1ccccc1` | system: NCI-H226 lung
[out] 110

[in] # query: growth | item `O=[N+]([O-])c1ccc(Oc2ccccc2)cc1` | system: NCI-H226 lung
[out] 103

[in] # query: growth | item `O=[N+]([O-])c1ccc2nc3c4ccccc4c4ccccc4c3nc2c1` | system: NCI-H226 lung
[out] 41.5

[in] # query: growth | item `CCCCCCCCCCCCOc1ccccc1C=O` | system: NCI-H226 lung
[out] 95.4

[in] # query: growth | item `O=C(O)CSCc1nc2ccccc2[nH]1` | system: NCI-H226 lung
[out] 106

[in] # query: growth | item `C1CCCCNCCC1` | system: NCI-H226 lung
[out] 99.2

[in] # query: growth | item `CC12CCC(CC1)C(C)(C)O2` | system: NCI-H226 lung
[out] 104

[in] # query: growth | item `Clc1nc(Oc2ccccc2)nc(-c2cn(-c3ccccc3)c3ccccc23)n1` | system: NCI-H226 lung
[out] 80.2

[in] # query: growth | item NC(=O)c1ccccc1OCC(O)CO (centres undefined) | system: NCI-H226 lung
[out] 95.8

[in] # query: growth | item `COc1ccc(NC(=S)Nc2ccccn2)cc1` | system: NCI-H226 lung
[out] 86.2

[in] # query: growth | item `Cc1ccc(S(=O)(=O)NCN2C(=O)c3ccccc3C2=O)cc1` | system: NCI-H226 lung
[out] 115

[in] # query: growth | item `Cc1ccc2nc3c(nc2c1)-c1cccc2cccc-3c12` | system: NCI-H226 lung
[out] 86.3

[in] # query: growth | item `O=C1c2ccccc2C(=O)N1/N=C/c1ccc2c(c1)OCO2` | system: NCI-H226 lung
[out] 101

[in] # query: growth | item `O=C(Cc1cccc2ccccc12)N/N=C/c1ccc2c(c1)CCC2` | system: NCI-H226 lung
[out] 97.3

[in] # query: growth | item NCCSC(C[N+](=O)[O-])c1ccccc1Cl (centres undefined) | system: NCI-H226 lung
[out] 99.1

[in] # query: growth | item Nc1ccccc1SC1CC(=O)N(c2cccc3ccccc23)C1=O (centres undefined) | system: NCI-H226 lung
[out] 83.6

[in] # query: growth | item `CCOC(=O)c1sc(N)nc1-c1ccccc1` | system: NCI-H226 lung
[out] 98.7

[in] # query: growth | item `CC(=O)C(/C=N/C(N)=O)=C(/C)O` | system: NCI-H226 lung
[out] 111

[in] # query: growth | item `N#C/C(=C1C=C/C(=N/O)C(Br)=C/1)c1ccccc1` | system: NCI-H226 lung
[out] 32
